Each entry below lists one item and its recorded inhibition value.
Target System: Large T antigen (Simian virus 40) (UniProt P03070)
Sequence (P03070 whole entry, looked up): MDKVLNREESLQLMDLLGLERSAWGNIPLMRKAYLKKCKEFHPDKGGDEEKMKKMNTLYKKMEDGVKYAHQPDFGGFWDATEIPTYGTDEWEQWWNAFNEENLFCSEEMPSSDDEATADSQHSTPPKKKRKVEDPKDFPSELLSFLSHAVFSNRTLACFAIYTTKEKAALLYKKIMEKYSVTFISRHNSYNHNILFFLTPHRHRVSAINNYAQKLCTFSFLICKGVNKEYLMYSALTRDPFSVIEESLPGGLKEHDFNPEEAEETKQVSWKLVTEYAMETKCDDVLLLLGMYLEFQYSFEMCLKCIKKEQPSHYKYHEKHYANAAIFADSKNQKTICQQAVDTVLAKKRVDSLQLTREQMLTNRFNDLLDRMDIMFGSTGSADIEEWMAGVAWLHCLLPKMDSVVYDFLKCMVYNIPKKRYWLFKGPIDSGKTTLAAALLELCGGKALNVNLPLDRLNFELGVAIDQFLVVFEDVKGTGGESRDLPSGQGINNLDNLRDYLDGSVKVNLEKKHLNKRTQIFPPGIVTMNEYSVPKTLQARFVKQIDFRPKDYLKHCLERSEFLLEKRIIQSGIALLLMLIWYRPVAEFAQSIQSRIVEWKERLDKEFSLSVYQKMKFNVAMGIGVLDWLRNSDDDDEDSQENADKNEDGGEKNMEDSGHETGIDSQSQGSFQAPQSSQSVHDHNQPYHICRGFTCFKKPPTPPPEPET
Test Name: SV40 large T antigen inhibitors, biochemical (AID 1903)
Conditions Used: SV40 large T antigen ATPase/helicase inhibition assay; at 20 µM; stronger effect = higher value
About 1,200 (0.39%) of roughly 310,000 compounds were called active. Only a sample is shown. Potency and affinity values are given separately.
Numeric answer only, unit % assumed.

Compound	Experimental Result
Cc1cc(/C=C2/NC(=O)NC2=O)c(C)n1-c1ccncc1	6.66
Cc1c(N=NC2=C(O)CC(C)(C)CC2=O)c(=O)n(-c2ccccc2)n1C	4.32
CCN(C(=O)CN1C(=S)NC(C)(C)CC1C)c1ccc(C)c(C)c1 (stereo not drawn)	6.37
O=[N+]([O-])c1ccccc1NCCOc1ccccc1	5.2
Cc1cccc(NC(=O)c2ccc(NC(=O)CC3SC(N4CCCC4)=NC3=O)cc2)n1 (stereo not drawn)	12.5
COc1ccc(CN2CC(C(=O)N3CCOCC3)CC2=O)cc1 (stereo not drawn)	13.7
Cc1cc(/C=N\O)c(C)n1-c1ccncc1	7.77
CCOc1ccc(CNS(=O)(=O)c2ccc3c(c2)CC(=O)N3C)cc1	11.9

Which inhibition is listed for CCC(C)C1=CC(=Nc2c(C)n(C)n(-c3ccccc3)c2=O)C=C(C(C)CC)C1=O (stereo not drawn) ?
4.02

Input CCCC(c1nnnn1Cc1ccco1)N1CCN(c2ccccc2)CC1 (stereo not drawn)
24

Input "CCOC(=O)C1=C(O)/C(=C/c2cc(OC)c(OC)c(OC)c2)N=C1C"
3.44

Input "Cc1ccc(NC(=O)COC(=O)CCC(=O)c2cccs2)cc1S(=O)(=O)N1CCOCC1"
14.2

Input "CCOC(=O)c1nn(-c2ccc3ccccc3c2)cc1O"
27.5

Input "Cc1cc(/C=C2\NC(=S)NC2=O)c(C)n1-c1cccnc1"
4.58

Input "CC(=O)Nc1ccc(S(=O)(=O)Oc2ccccc2N2CCCCC2)cc1"
2.71

Input "Cc1nsc2nc3c(F)c(F)c(F)c(F)c3cc12"
16.9

Input "Cc1cc(/C=C2/NC(=S)NC2=O)c(C)n1-c1cccnc1"
5.09

Input "COc1cc(Cl)c(C)cc1NC(=O)CCCn1c(=O)oc2ccccc21"
4.1

Input "CC(C)(C)NC(=O)CSCc1c(Cl)cccc1Cl"
3.06

Input "CCOc1ccccc1NC(=S)N1CCN(c2ccccc2)CC1"
3.57

Input "CC(=O)/C(N=Nc1c(C)n(C)n(-c2ccccc2)c1=O)=C(\C)O"
1.99

Input "COC(=O)C1=C(O)/C(=C\c2ccc(OCC(=O)Nc3ccccc3OC)cc2)N=C1C"
-3.54

Input "COc1cc(/C=C/CO)ccc1O[C@@H]1O[C@H](CO)[C@@H](O)[C@H](O)[C@H]1O"
1.74

----------
Each entry below lists one item and its recorded inhibition value.
Target System: Large T antigen (Simian virus 40) (UniProt P03070)
Test Name: SV40 large T antigen inhibitors, biochemical (AID 1903)
Conditions Used: SV40 large T antigen ATPase/helicase inhibition assay; at 20 µM; stronger effect = higher value
Among all 310,000 compounds or so, about 1,200 (0.39%) were called active. These entries were drawn from the full list. Results with a measured potency or affinity are listed apart.
Numeric answer only, unit % assumed.

Solved cases below.
Compound	Experimental Result
N#Cc1ccsc1NC(=O)CN1CCN(c2ccccc2)CC1	9.52
COc1ccc(Br)cc1/C=C/C(=O)NC(=S)Nc1ccc(Cl)c(C(=O)O)c1	25.5
COc1ccc(OC)c(CC(=O)NC(c2ccccc2)c2ccccc2)c1	5.47
O=C(CSc1nnc(Cn2c(=O)sc3ccccc32)n1-c1ccccc1)N1CCCCCC1	2.86
COc1cc(OC)cc(C(=O)Nc2ccc(NC(=O)c3ccco3)c(C)c2)c1	20

Query the reported inhibition for Large T antigen (Simian virus 40) (UniProt P03070); item: "O=C(CCc1ccc(O)c(O)c1)N/N=C/c1ccc2c(c1)OCO2"
32.3

Input "Brc1ccc(-c2csc(NNC3=NCCCCC3)n2)cc1"
21.1

Input "O=C(CN1CCN(c2ccc(F)cc2)CC1)Nc1ccc2c(c1)OCCO2"
8.68

Input "O=C(CSc1nc(-c2ccccc2)c(-c2ccccc2)o1)N1CCOCC1"
4.01

----------
Target System: Large T antigen (Simian virus 40) (UniProt P03070)
Test Name: SV40 large T antigen inhibitors, biochemical (AID 1903)
Conditions Used: SV40 large T antigen ATPase/helicase inhibition assay; at 20 µM; stronger effect = higher value
Screen size: about 310,000 compounds; about 1,200 (0.39%) were called active. Not all results are given here. Results with a measured potency or affinity are listed apart.
Endpoint Label: inhibition (%)
Numeric answer only, unit % assumed.

Solved cases below.
CCOC(=O)C1CCN(C(=O)CCNC(=O)c2cc(OC)c(OC)c(OC)c2)CC1 4.64
C=CCn1cccc(C(=O)Nc2ccc(C)c(C)c2)c1=O 10.4
O=C(COc1ccccc1Br)Nc1ccc2c(c1)OCCCO2 8.78
COC(=O)/C(=C\Nc1ccc(Cl)cc1Cl)NC(=O)c1ccc(Cl)cc1Cl 6.46

Which inhibition is listed for "COc1ccc(CC(=O)NN2C(=O)c3ccccc3C2=O)cc1" ?
10.8

Input "O=C(NCc1ccco1)/C(=C/c1ccc(F)cc1)NC(=O)c1ccccc1"
5.2

----------
Target System: Large T antigen (Simian virus 40) (UniProt P03070)
Test Name: SV40 large T antigen inhibitors, biochemical (AID 1903)
Conditions Used: SV40 large T antigen ATPase/helicase inhibition assay; at 20 µM; stronger effect = higher value
The whole screen tested about 310,000 compounds, of which about 1,200 (0.39%) were called active. Not all results are given here. Results with a measured potency or affinity are listed apart.
Each entry below lists one item and its recorded inhibition value.

Solved cases below.
O=C(N/N=C/c1cccc(O)c1)N/N=C/c1cccc(O)c1 18.6% (inactive)
Cc1c(Cc2ccccc2)c(=O)oc2c(C)c(OCc3nn[nH]n3)ccc12 11.2% (inactive)
Cc1nonc1C(=O)N/N=C/c1ccccc1 -0.19% (inactive)
O=C(CSc1nnc(NC(=O)c2c(F)cccc2F)s1)Nc1ccccc1F 11.2% (inactive)
CC(C)c1nc(SCC(=O)Nc2ccc3c(c2)OCCO3)c2c(=O)n(C)c(=O)n(C)c2n1 3.08% (inactive)
COc1ccc(N=Cc2c(O)n(-c3ccc(OC)cc3)c(=O)c3ccccc23)cc1 17.6% (inactive)
C=C1CC(C(=O)N/N=C/c2ccccc2)C1 5.07% (inactive)
Cc1nonc1C(=O)N/N=C/c1cccc(O)c1 8.34% (inactive)
CN1CCN(C(=O)CSc2nnc(COc3ccccc3)o2)CC1 6.15% (inactive)
O=C(COc1ccccc1C(=O)N/N=C\c1ccc(O)c(O)c1)N/N=C/c1ccc(O)c(O)c1 2.12% (inactive)

Which inhibition is listed for "COc1ccc2c(c1)c(C(=O)N/N=C/c1ccc(OC)c(OC)c1)c(C)n2C" ?
13.7% (inactive)

----------
Target System: Large T antigen (Simian virus 40)
Test Name: SV40 large T antigen inhibitors, biochemical (AID 1903)
Conditions Used: SV40 large T antigen ATPase/helicase inhibition assay; at 20 µM; stronger effect = higher value
About 1,200 (0.39%) of roughly 310,000 compounds were called active. The list is a sample of the results. Entries with a potency or affinity are not part of this list.
Endpoint Label: inhibition (%)
Numeric answer only, unit % assumed.

Solved cases below.
Compound	Target System	Unit Info	Experimental Result
Cc1ccc(-n2nc(C(=O)O)nc2-c2ccccc2)cc1	Large T antigen (Simian virus 40)	%	38
COC(=O)CNc1cc(S(=O)(=O)N2CCCCC2)ccc1Oc1cccc(C)c1	Large T antigen (Simian virus 40)	%	5.08

Query the reported inhibition for Large T antigen (Simian virus 40); item: O=C1C(Cc2ccccc2)Nc2ncnc(N3CCCCC3)c2N1Cc1ccc(Cl)cc1 (configuration not stated)
23.8

Input "CCOc1cc(C(=O)N2CCC3(CC2)NCCc2[nH]cnc23)cc(OCC)c1OCC"
8.46

Input "O=C(Cc1ccc(Cl)cc1)Nc1ccccc1C(=O)N1CCCCC1"
5.13

Input "O=C(Nc1ccc(C2SCCS2)cc1)c1ccccc1"
5.93

Input "COc1ccccc1/C=C/C(=O)N1CCCC1"
16.6

Input "CC(=NCc1ccccc1)C1=C(O)COC1=O"
5.76

Input "Cc1ccc(N=C(N)N=C(N)N)cc1"
6.91

Input OCC1CCCN(C(=S)Nc2ccc(Oc3ccccc3)cc2)C1 (configuration not stated)
5.94

Input CC1CCCN(C(=S)Nc2ccc(Nc3ccccc3)cc2)C1 (configuration not stated)
14.1

Input "CCc1cccc2c(C(=O)CSc3nncn3-c3ccccc3OC)c[nH]c12"
2.74

----------
Target System: Large T antigen (Simian virus 40)
Test Name: SV40 large T antigen inhibitors, biochemical (AID 1903)
Conditions Used: SV40 large T antigen ATPase/helicase inhibition assay; at 20 µM; stronger effect = higher value
Out of some 310,000 compounds screened, about 1,200 (0.39%) were called active. Only a sample is shown. Results with a measured potency or affinity are listed apart.
Outcome label depends on inhibition relative to 10%: at/above gives yes, below gives no.

Reference set (3 entries):
Compound	Target System	Qualitative Label
NC1=NC(=O)/C(=C/c2cccs2)S1	Large T antigen (Simian virus 40)	no
O=C1CCCN=C(Nc2ccc(F)c(Cl)c2)S1	Large T antigen (Simian virus 40)	no
Cc1nc2ccccc2n1CC(=O)NCCN1CCOCC1	Large T antigen (Simian virus 40)	yes

Continue with the next compound.
Tell me whether inhibition is at least 10% here: "Cc1cccc(N=c2oc3cc(O)ccc3cc2C(N)=O)c1"
yes
